Taken from PubChem BioAssay (EPA / NIEHS).

Read-out: Secreted IgG (sIgG), gene 3500
method: BSK_BT_sIgG: BioMAP Diversity Plus: BT Assay for Secreted IgG (sIgG) Biomarker Activity (AID 2284226)
reported-conditions: primary human B cells with PBMC
Active and inactive are the calls of the source. The calls were made as follows: active = hit-call score of the fitted dose curve at least 0.9, where 1 is the maximum; inactive = score below 0.9.
reported-property: AC50

Example compounds with recorded AC50:
INSERT INTO results (mol_smiles, reported_property, result) VALUES
  ('FC(F)(F)C(F)(F)C(F)(F)C(F)(F)CCI', 'AC50', 'inactive'),
  ('C#C[C@]1(O)CC[C@H]2[C@@H]3CCc4cc(OC)ccc4[C@H]3CC[C@@]21C', 'AC50', '7.71 µM (active)'),
  ('O=S(=O)(OCC(F)F)C(F)(F)F', 'AC50', 'inactive'),
  ('CCCCOCCOCCOC(=O)CCCCC(=O)OCCOCCOCCCC', 'AC50', 'inactive'),
  ('O=C(Cl)C(F)(F)C(F)(F)C(F)(F)C(F)(F)C(F)(F)C(F)(F)C(F)(F)C(F)(F)F', 'AC50', 'inactive');

The compound identified as C=CC(=O)OCC(F)(F)C(F)(F)C(F)(F)C(F)(F)C(F)(F)C(F)(F)C(F)(F)F registered its AC50 at inactive

The compound identified as OCC(F)(F)C(F)(F)C(F)(F)C(F)(F)C(F)(F)C(F)F registered its AC50 at inactive

The compound identified as OCC(F)(F)C(F)(F)C(F)(F)F registered its AC50 at inactive

The compound identified as FC(F)(F)C(F)(F)C(F)(F)N(C(F)(F)C(F)(F)C(F)(F)F)C(F)(F)C(F)(F)C(F)(F)F registered its AC50 at inactive

The compound identified as CC(=O)Nc1ccc(N=Nc2cc(C)ccc2O)cc1 registered its AC50 at 9.61 µM (active)

The compound identified as CCCCCCCCC(F)(F)C(F)(F)C(F)(F)C(F)(F)C(F)(F)C(F)(F)F registered its AC50 at inactive

The compound identified as Oc1ccc(Nc2ccccc2)cc1 registered its AC50 at 13.4 µM (active)

The compound identified as CCO[Si](CCC(F)(F)C(F)(F)C(F)(F)C(F)(F)C(F)(F)C(F)(F)F)(OCC)OCC registered its AC50 at inactive

The compound identified as C=C(C)C(=O)OCCC(F)(F)C(F)(F)C(F)(F)C(F)(F)C(F)(C(F)(F)F)C(F)(F)F registered its AC50 at inactive

The compound identified as FC(F)(F)C(F)(F)C(F)(F)C(F)(F)C(F)(F)C(F)(F)C(F)(F)I registered its AC50 at inactive

###

method: ATG_RORE_CIS: Attagene CIS-FACTORIAL HepG2 Assay for human RAR-related Orphan Receptor Element (RORE) (AID 2282959)
reported-conditions: HepG2 Attagene cis-factorial RORE reporter, mRNA; actives raise or lower the signal
Protocol: ATG_CIS is a cell-based, multiplexed-readout assay that uses HepG2, a human liver cell line, with measurements taken at 24 hours after chemical dosing in a 24-well plate.ATG_RORE_CIS is one of 52 assay component(s) measured or calculated from the ATG_CIS assay. […] This assay endpoint, ATG_RORE_CIS, was analyzed with bidirectional fitting relative to DMSO as the negative control and baseline of activity. […]
Active and inactive are the calls of the source. The calls were made as follows: active = hit-call score of the fitted dose curve at least 0.9, where 1 is the maximum; inactive = score below 0.9.
reported-property: AC50

Example compounds with recorded AC50:
INSERT INTO measurements (compound, reported_property, result) VALUES
  ('c1ccc(B(c2ccccc2)c2ccccc2)cc1', 'AC50', '71.5 µM (active)'),
  ('Nc1ccc(Oc2cccc(Oc3ccc(N)cc3)c2)cc1', 'AC50', '14.9 µM (active)'),
  ('CO[Si](OC)(c1ccccc1)c1ccccc1', 'AC50', 'inactive'),
  ('OCCCC(F)(F)C(F)(F)C(F)(F)F', 'AC50', 'inactive'),
  ('CCCCCCCOC(=O)c1ccccc1C(=O)OCCCCCCC', 'AC50', 'inactive'),
  ('CCCCCCC(C)OC(=O)CCCCC(=O)OC(C)CCCCCC (stereo not given)', 'AC50', 'inactive'),
  ('CC(Cc1ccc(O)c(O)c1)C(C)Cc1ccc(O)c(O)c1 (stereo not given)', 'AC50', '6.13 µM (active)'),
  ('CCCCCCOC(=O)c1ccccc1', 'AC50', 'inactive');

The compound identified as O=P(O)(O)OCCC(F)(F)C(F)(F)C(F)(F)C(F)(F)C(F)(F)C(F)(F)F registered its AC50 at inactive

The compound identified as CCCCCCS registered its AC50 at inactive

###

Read-out: Eotaxin 3, CCL26 (gene 10344)
method: BSK_BF4T_Eotaxin3: BioMAP Diversity Plus: BF4T Assay for Eotaxin 3 Biomarker Activity (AID 2284258)
reported-conditions: primary human bronchial epithelial cells with fibroblasts
Calls of active or inactive are those of the source. Rule for the calls: active = hit-call score of the fitted dose curve at least 0.9, where 1 is the maximum; inactive = score below 0.9.
reported-property: outcome

INSERT INTO results (compound, reported_property, result) VALUES
  ('CCO[Si](CCC(F)(F)C(F)(F)C(F)(F)C(F)(F)C(F)(F)C(F)(F)F)(OCC)OCC', 'outcome', 'inactive'),
  ('FC(F)(F)C(F)(F)C(F)(F)C(F)(F)C(F)(F)C(F)(F)CC1CO1 (stereo not drawn)', 'outcome', 'inactive'),
  ('CC(C)(C)C(=O)CC(=O)C(F)(F)C(F)(F)C(F)(F)F', 'outcome', 'inactive'),
  ('O=S(=O)(OCCOC(F)(F)F)C(F)(F)F', 'outcome', 'inactive'),
  ('C=C(C)C(=O)OCCC(F)(F)C(F)(F)C(F)(F)C(F)(F)C(F)(C(F)(F)F)C(F)(F)F', 'outcome', 'inactive');

The compound identified as FC(F)(F)C(F)(F)C(F)(F)C(F)(F)C(F)(F)C(F)(F)C(F)(F)I registered its outcome at inactive

The compound identified as O=C(O)C(F)(F)C(F)(F)C(F)(F)F registered its outcome at inactive

The compound identified as FC(F)(F)C(F)(F)C(F)(F)CI registered its outcome at inactive

###

Read-out: Interleukin-1 alpha (IL1a), IL1A (gene 3552)
method: BSK_IMphg_IL1a: BioMAP Diversity Plus: IMphg Assay for Interleukin-1 alpha (IL1a) Biomarker Activity (AID 2284290)
reported-conditions: primary human endothelial cells with macrophages
Activity calls are given as the source filed them. The calls were made as follows: active = hit-call score of the fitted dose curve at least 0.9, where 1 is the maximum; inactive = score below 0.9.
reported-property: outcome

Example compounds with recorded outcome:
INSERT INTO measurements (compound, result) VALUES
  ('O=C(O)C(F)(F)C(F)(F)C(F)(F)F', 'inactive'),
  ('O=C(Cl)C(F)(F)C(F)(F)C(F)(F)C(F)(F)C(F)(F)C(F)(F)C(F)(F)C(F)(F)F', 'inactive'),
  ('C=CC(F)(F)C(F)(F)C(F)(F)C(F)(F)C(F)(F)C(F)(F)C(F)(F)C(F)(F)F', 'inactive'),
  ('CCO[Si](CCC(F)(F)C(F)(F)C(F)(F)C(F)(F)C(F)(F)C(F)(F)F)(OCC)OCC', 'inactive'),
  ('FC(F)(F)C(F)(F)C(F)(F)C(F)(F)C(F)(F)C(F)(F)C(F)(F)C(F)(F)CCS', 'inactive'),
  ('CCCCCCCCC(F)(F)C(F)(F)C(F)(F)C(F)(F)C(F)(F)C(F)(F)F', 'inactive'),
  ('FC(F)(F)C(F)(F)C(F)(F)C(F)(F)C(F)(F)C(F)(F)CC1CO1 (configuration not stated)', 'inactive'),
  ('N=C(N)C(F)(F)C(F)(F)C(F)(F)C(F)(F)C(F)(F)C(F)(F)C(F)(F)F', 'inactive');

The compound identified as O=C(O)C(F)(F)C(F)(F)F registered its outcome at inactive

The compound identified as FC(F)(Br)C(F)(F)C(F)(F)C(F)(F)C(F)(F)C(F)(F)Br registered its outcome at inactive

The compound identified as O=C(CC(=O)C(F)(F)C(F)(F)F)C(F)(F)F registered its outcome at inactive

The compound identified as C=CC(F)(F)C(F)(F)C(F)(F)C(F)(F)C(F)(F)C(F)(F)C(F)(F)C(F)(F)C=C registered its outcome at inactive

The compound identified as FC(F)(I)C(F)(F)C(F)(F)C(F)(F)I registered its outcome at inactive

###

test-target: Nuclear receptor subfamily 1 group I member 2 (Homo sapiens)
method: ATG_PXR_TRANS: Attagene TRANS-FACTORIAL HepG2 Assay for human Pregnane X Receptor (PXR) (AID 2283008)
Inconclusive results are not listed. Active and inactive are the calls of the source. Rule for the calls: active = hit-call score of the fitted dose curve at least 0.9, where 1 is the maximum; inconclusive = response in the unintended direction; inactive = score below 0.9.
I would appreciate it if you answered using one of these outcomes: 1 (yes) = active, 0 (no) = inactive

INSERT INTO measurements (compound, label_class) VALUES
  ('Cc1cc(C)cc(O)c1', '0 (no)'),
  ('FC(F)(F)C(F)(F)C(F)(F)C(F)(F)C(F)(F)C(F)(F)CC1CO1 (stereo not given)', '0 (no)'),
  ('CC/C=C\CCOC(C)=O', '0 (no)'),
  ('C1COCCN1', '0 (no)'),
  ('CCC(=O)OCCc1ccccc1', '0 (no)');

Outcome logged for CO[Si](OC)(c1ccccc1)c1ccccc1 in this assay: 1 (yes)

Outcome logged for COC(=O)C1CCC(C(=O)OC)CC1 (stereo not given) in this assay: 0 (no)

Outcome logged for OC[C@@H](O)[C@@H](O)[C@H](O)[C@@H](O)CO in this assay: 1 (yes)

Outcome logged for Cc1cccc(N(C)C)c1 in this assay: 0 (no)

Outcome logged for OCC(F)(F)C(F)(F)C(F)(F)F in this assay: 0 (no)

Outcome logged for O=P(O)(O)OCCC(F)(F)C(F)(F)C(F)(F)C(F)(F)C(F)(F)C(F)(F)F in this assay: 0 (no)

Outcome logged for O=C(O)C(F)(F)C(F)(F)C(F)(F)C(F)(F)C(F)(F)C(F)(F)C(F)(F)C(F)(F)C(F)(F)C(F)(F)C(F)(F)C(F)(F)F in this assay: 0 (no)

Outcome logged for CCCCCCCOC(=O)c1ccccc1C(=O)OCCCCCCC in this assay: 1 (yes)

Outcome logged for C#C[C@]1(O)CC[C@H]2[C@@H]3CCc4cc(OC)ccc4[C@H]3CC[C@@]21C in this assay: 1 (yes)

Outcome logged for O=C(O)C(F)(F)C(F)(F)C(F)F in this assay: 0 (no)

Outcome logged for O=C(CC(=O)C(F)(F)C(F)(F)F)C(F)(F)F in this assay: 0 (no)

Outcome logged for CCCCOc1ccc(N)cc1 in this assay: 0 (no)

Outcome logged for CC(CCl)OP(=O)(OC(C)CCl)OC(C)CCl (stereo not given) in this assay: 1 (yes)

Outcome logged for CCCCOCCOCCOC(=O)CCCCC(=O)OCCOCCOCCCC in this assay: 0 (no)

Outcome logged for O=C(O)C(F)(F)C(F)(F)OC(F)(F)F in this assay: 0 (no)
